Provide the recorded inhibition for the entries that follow.
- test.system: Cytochrome P450 2C9 (Homo sapiens) (UniProt P11712)
- Sequence (P11712 whole entry, looked up): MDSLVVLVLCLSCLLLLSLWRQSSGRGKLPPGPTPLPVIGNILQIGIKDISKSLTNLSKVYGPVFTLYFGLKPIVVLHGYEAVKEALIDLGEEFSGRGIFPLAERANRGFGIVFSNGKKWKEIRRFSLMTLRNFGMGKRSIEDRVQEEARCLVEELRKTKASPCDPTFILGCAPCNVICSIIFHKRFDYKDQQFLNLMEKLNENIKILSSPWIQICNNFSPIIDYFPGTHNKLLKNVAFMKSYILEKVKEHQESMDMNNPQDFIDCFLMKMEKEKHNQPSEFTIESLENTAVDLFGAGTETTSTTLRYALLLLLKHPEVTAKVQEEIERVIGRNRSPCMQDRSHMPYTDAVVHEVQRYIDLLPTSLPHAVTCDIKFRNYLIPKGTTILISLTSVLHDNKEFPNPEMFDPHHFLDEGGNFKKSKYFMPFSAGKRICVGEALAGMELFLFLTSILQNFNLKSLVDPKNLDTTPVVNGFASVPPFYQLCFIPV
- method.summary: blockers of cytochrome P450 2C9 activity – biochemical, luminescence, ADME assay, primary screen (AID 777)
- condition.notes: CYP2C9 Supersomes, luciferin-H conversion, at 5 µM, active compounds read high
Out of some 96,000 compounds screened, about 19,000 (20%) were called active. Only a sample is shown.
Answers are plain numbers, in %.

> print(dat)
                                   compound                               test.system  recorded.result
1  O=C(NCc1ccc2c(c1)OCO2)c1ccc2c(c1)C(=O)N(CC1CCCO1)C2=O (configuration not stated)  Cytochrome P450 2C9 (Homo sapiens) (UniProt P11712)              2.3

Would you be so kind as to report inhibition for each listed record?
1. O=C(COc1ccccc1F)NC1CC1
2. Nc1ncc(-c2cc3ccccc3oc2=O)s1
3. COc1ccc([N+](=O)[O-])cc1N(CC(O)Cn1nnc2ccccc21)S(=O)(=O)c1ccc(C)cc1 (configuration not stated)
4. COc1cc(C(=O)Nc2oc(-c3ccccc3)c(-c3ccccc3)c2C#N)cc(OC)c1OC

stdout:
-15.2
24
63.8
43.6

Would you be so kind as to report inhibition for each listed record?
1. Cc1ccc2cccc(O)c2[n+]1[O-]
2. CCCn1c(O)c(CN2CCCC(C)C2)c(C)c(C#N)c1=O (configuration not stated)
3. COC(=O)c1ccc(Oc2nc(NC(C)C)nc(SC)n2)cc1
4. COc1ccc(COC(=O)c2n[nH]c3ccccc23)cc1F

stdout:
[11.3, 5.2, 37.2, 54.1]

---

- test.system: Cytochrome P450 2C9 (Homo sapiens) (UniProt P11712)
- method.summary: blockers of cytochrome P450 2C9 activity – biochemical, luminescence, ADME assay, primary screen (AID 777)
- condition.notes: CYP2C9 Supersomes, luciferin-H conversion, at 5 µM, active compounds read high
About 19,000 (20%) of roughly 96,000 compounds were called active. Only a sample is shown.
Provide the recorded inhibition for the entries that follow.

> print(dat)
                       compound   recorded.result
1  O=C(NCN1CCN(CCO)CC1)c1cnccn1  10.7% (inactive)

Would you be so kind as to report inhibition for each listed record?
1. O=C(COc1ccccc1)N1CCc2ccccc2C1
2. CCNS(=O)(=O)c1ccc(NC(=O)Nc2cccc(OC)c2)cc1
3. CC(C)CNC(=S)NNC(=O)c1ccccc1OC(F)F
4. CSc1nc(C)cc(SC(C(C)=O)C(=O)Nc2ccccc2)n1 (stereo not drawn)
5. COc1ccc(CNC2CCCCC2)cc1
6. ONC(=Nc1ccccc1)c1ccccc1Cl
7. O=C(O)/C=C/C(=O)Nc1ccc(F)cc1F

stdout:
39.9% (inactive)
59.5% (active)
3.6% (inactive)
65.3% (active)
2.3% (inactive)
2.1% (inactive)
3.9% (inactive)

---

- test.system: Cytochrome P450 2C9 (Homo sapiens) (UniProt P11712)
- method.summary: blockers of cytochrome P450 2C9 activity – biochemical, luminescence, ADME assay, primary screen (AID 777)
- condition.notes: CYP2C9 Supersomes, luciferin-H conversion, at 5 µM, active compounds read high
In all, about 96,000 compounds went through this assay and about 19,000 (20%) were called active. These entries were drawn from the full list.
outcome.measure: inhibition (%)
Numbers only, in %.

Recorded results for 3 molecules are shown here.
> print(dat)
                                   molecule                               test.system  outcome.measure  recorded.result
1                      Cc1ccc(C)n1-c1ccncc1  Cytochrome P450 2C9 (Homo sapiens) (UniProt P11712)       inhibition             40.5
2  O=S1(=O)CC(NCc2ccccc2)C(Nc2ccc(Cl)cc2)C1 (configuration not stated)  Cytochrome P450 2C9 (Homo sapiens) (UniProt P11712)       inhibition             27.4
3       Cc1noc(C)c1COC(=O)Cn1c(C)nc2ccccc21  Cytochrome P450 2C9 (Homo sapiens) (UniProt P11712)       inhibition             10.7

Would you be so kind as to report inhibition for each listed record?
1. Cc1noc(C)c1COC(=O)c1cc2ccccc2cc1O
2. O=C(Nc1ncccn1)c1cccs1
3. Cc1cc2nc(C)n(CCCNC(=O)Nc3ccccc3)c2cc1C
4. Cc1ccc(-c2nnc(-c3ccc(NC(=O)c4cccs4)cc3)o2)cc1

stdout:
[91.6, -3.3, 44.6, 56.4]
